Values compiled from paper PMC11558545.

Recorded pKd for the following binders
target_or_test_system: T1, Arabidopsis 14-3-3 omega, full length (At14-3-3-ω^1−259) (Arabidopsis thaliana, UniProt Q01525 1-259)
T1 chain: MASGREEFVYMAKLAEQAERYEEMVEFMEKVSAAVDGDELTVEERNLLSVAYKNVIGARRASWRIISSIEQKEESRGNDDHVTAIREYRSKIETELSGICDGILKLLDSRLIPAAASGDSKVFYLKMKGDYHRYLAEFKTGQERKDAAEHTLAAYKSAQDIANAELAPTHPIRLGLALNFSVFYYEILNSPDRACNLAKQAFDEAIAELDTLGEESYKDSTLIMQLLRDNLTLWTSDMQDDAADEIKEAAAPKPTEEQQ
protocol_summary: ITC
Square brackets hold non-standard residues; d marks the D form. Ends that are not written are not given here. pS = N[C@@H](COP(=O)(O)O)C(=O)O
Schema: pKd number; meaning minus log10 of the concentration expressed in molar units.

Asked: Query: pKd; subject: RISN[pS]AP [pBZR1^169−175 peptide]
Given back: 6.06

Asked: Query: pKd; subject: RGELF[pS]AP [pBKI1^265−272 peptide]
Given back: 5.19
